# credit: patent US6458834B2

# target.of.assay: human leucocyte elastase (Homo sapiens, UniProt P08246)
# Construct: purchased Elastin Products
# Sequence (P08246 30-267): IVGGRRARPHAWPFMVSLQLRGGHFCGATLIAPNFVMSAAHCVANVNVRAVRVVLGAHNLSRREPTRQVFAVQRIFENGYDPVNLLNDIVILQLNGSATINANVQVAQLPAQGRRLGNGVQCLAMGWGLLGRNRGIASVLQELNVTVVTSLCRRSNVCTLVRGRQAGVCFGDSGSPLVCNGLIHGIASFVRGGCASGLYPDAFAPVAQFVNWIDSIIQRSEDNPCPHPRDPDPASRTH
# assay.notes: Human leucocyte elastase (HLE) inhibition, MeO-Suc-Ala-Ala-Pro-Val-pNA substrate
# Type: biochemical
pIC50: −log10 of the molar value.
Kind request: treat 5 as inclusive, so pIC50 at 5 or higher is true (1), anything lower is false (0).

Q. // inclusive: pIC50 at least 5? input: CC1(C)CC[C@]2(C(=O)O)CC[C@]3(C)C(=CC[C@@H]4[C@@]5(C)CC[C@H](O)[C@@](C)(CO)[C@@H]5CC[C@]43C)[C@@H]2C1 [Example 23, Hederagenin]
A. false (0)

Q. // inclusive: pIC50 at least 5? input: C=C(C)C1CCC2(C(=O)O)CCC3(C)C(CCC4C5(C)CCC(OC(C)=O)C(C)(C)C5CCC43C)C12 (stereo not shown) [Example 11, Acetylbetulinic acid]
A. true (1)

Q. // inclusive: pIC50 at least 5? input: C=C(C)[C@@H]1CC[C@]2(CO)CC[C@]3(C)[C@H](CC[C@@H]4[C@@]5(C)CC[C@H](O)C(C)(C)[C@@H]5CC[C@]43C)[C@@H]12 [Example 7, Betulin]
A. true (1)

Q. // inclusive: pIC50 at least 5? input: C[C@H]1[C@H](C)CC[C@]2(CO)CC[C@]3(C)C(=CC[C@@H]4[C@@]5(C)CC[C@H](O)C(C)(C)[C@@H]5CC[C@]43C)[C@H]12 [Example 16, Uvaol]
A. true (1)

###

# target.of.assay: human leucocyte elastase (Homo sapiens, UniProt P08246)
# Construct: purchased Elastin Products
# assay.notes: Human leucocyte elastase (HLE) inhibition, MeO-Suc-Ala-Ala-Pro-Val-pNA substrate
# Assay type: biochemical
test.readout: pIC50
Remember the convention: pIC50 equals -log10 of concentration in molar.

Examples with their reported pIC50 follow.
- C=C(C)C1CCC2(C(=O)O)CCC3(C)C(CCC4C5(C)CCC(OS(C)(=O)=O)C(C)(C)C5CCC43C)C12 (stereo not drawn): 4.95
- C=C(C)[C@@H]1CC[C@]2(C)CC[C@]3(C)[C@H](CC[C@@H]4[C@@]5(C)CC[C@H](O)C(C)(C)[C@@H]5CC[C@]43C)[C@@H]12: 5.08

Q. # return recorded pIC50 for input C[C@H]1[C@H](C)CC[C@]2(C(=O)O)CC[C@]3(C)C(=CC[C@@H]4[C@@]5(C)CC[C@H](O)C(C)(C)[C@@H]5CC[C@]43C)[C@H]12
A. 5.11
